Reported values of IC50 for individual entries
- system_under_test: Pancreatic alpha-amylase (Sus scrofa)
- Sequence (P00690 whole entry): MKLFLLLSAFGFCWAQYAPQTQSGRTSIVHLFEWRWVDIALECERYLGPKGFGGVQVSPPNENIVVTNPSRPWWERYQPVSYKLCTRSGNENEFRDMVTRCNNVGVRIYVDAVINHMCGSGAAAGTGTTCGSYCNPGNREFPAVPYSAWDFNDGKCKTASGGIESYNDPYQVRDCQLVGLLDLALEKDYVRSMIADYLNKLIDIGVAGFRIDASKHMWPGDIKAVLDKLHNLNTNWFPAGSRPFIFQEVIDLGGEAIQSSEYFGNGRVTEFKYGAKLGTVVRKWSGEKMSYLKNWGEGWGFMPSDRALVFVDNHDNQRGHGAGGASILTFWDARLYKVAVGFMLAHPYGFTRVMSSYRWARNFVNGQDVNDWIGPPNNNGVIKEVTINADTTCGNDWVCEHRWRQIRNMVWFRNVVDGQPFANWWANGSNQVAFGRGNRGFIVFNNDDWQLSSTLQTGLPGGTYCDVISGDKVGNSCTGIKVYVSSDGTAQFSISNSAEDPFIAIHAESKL
value_type: IC50 (µM)

1) CCOc1ccc2nc(N/C(=C\C(=O)c3ccc(Br)cc3)SC)sc2c1 15.9
2) CS/C(=C/C(=O)c1ccc(F)cc1)Nc1nc2ccccc2s1 19.9
3) CCOc1ccc2nc(N/C(=C\C(=O)c3ccccc3)SC)sc2c1 16.3
4) CCOc1ccc2nc(N/C(=C\C(=O)c3ccc(Cl)cc3)SC)sc2c1 17.9
5) CS/C(=C/C(=O)c1ccc(Br)cc1)Nc1nc2cc(C)c(C)cc2s1 16.9
